- Measured Target: CHIP (Homo sapiens, UniProt Q9UNE7)
- Construct: N-term truncated CHIP (also known as STUB1, Uniprot ID: Q9UNE7, residues 23-303); made in house; host or cells: E. coli BL21 CodonPlus
- Sequence (Q9UNE7 23-303): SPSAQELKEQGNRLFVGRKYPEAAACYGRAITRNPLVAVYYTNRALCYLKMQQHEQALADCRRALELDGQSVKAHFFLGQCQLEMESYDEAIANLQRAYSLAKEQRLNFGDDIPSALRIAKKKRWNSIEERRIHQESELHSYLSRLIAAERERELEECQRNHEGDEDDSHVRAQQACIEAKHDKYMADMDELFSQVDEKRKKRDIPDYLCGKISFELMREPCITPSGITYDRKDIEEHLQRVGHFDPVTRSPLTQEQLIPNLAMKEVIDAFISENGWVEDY
- Experimental Details: Naive Library Presenter Screening (phage, NGS), CHIP
- Type: binding
- Test Context: CHIP target concentration 30 nM
Numbered stars: 1 amine (or outer) side, 2 acyl side, 3 side chain; on linkers, the order of the positions; unused ones are H or OH. Bridge positions count the residues as written; N and C are the ends. Ends that are not written are not given here. Phenylene(1,4-NHCOCH2)2 = O=C(C[*:1])Nc1ccc(NC(=O)C[*:2])cc1
Param threshold (80) applies to interaction data at Target Concentration 30; output Condition met when value >= threshold, Condition not met when value < threshold.

Query block: In plain terms: is recorded interaction data at Target Concentration 30 at least 80 for PCFEAWVMCEI (linker 2-9 via Phenylene(1,4-NHCOCH2)2 (inferred)) ?
Result block: Condition met

Query block: In plain terms: is recorded interaction data at Target Concentration 30 at least 80 for PCWNAWLYCSN (linker 2-9 via Phenylene(1,4-NHCOCH2)2 (inferred)) ?
Result block: Condition not met

Query block: In plain terms: is recorded interaction data at Target Concentration 30 at least 80 for ICYNAWFECE (linker 2-9 via Phenylene(1,4-NHCOCH2)2 (inferred)) ?
Result block: Condition not met

Query block: In plain terms: is recorded interaction data at Target Concentration 30 at least 80 for PCWDAWMLCTD (linker 2-9 via Phenylene(1,4-NHCOCH2)2 (inferred)) ?
Result block: Condition met

Query block: In plain terms: is recorded interaction data at Target Concentration 30 at least 80 for ICYNAWVECE (linker 2-9 via Phenylene(1,4-NHCOCH2)2 (inferred)) ?
Result block: Condition not met

Query block: In plain terms: is recorded interaction data at Target Concentration 30 at least 80 for ICYTAWLECE (linker 2-9 via Phenylene(1,4-NHCOCH2)2 (inferred)) ?
Result block: Condition not met
